B1: TRIM15 (parent)
chain: LLARLRELEQQIWKERDEYITKVS

- Variants of: B1
- Method notes: protein stability index of a GFP-peptide fusion (GPS, HEK-293T) (PSI 1-6); higher = more stable;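 also: lentivirally expressed fusions sorted by FACS into six bins by GFP to DsRed ratio, PSI derived from sequencing read proportions per bin multiplied by bin number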
- Assay conditions: c terminus: a fixed tail appended
Each item that follows carries a reported protein stability index.
Readout label: protein stability index

In [3]: df
Out[3]:
    mutation_descriptor   val
 0                 W13Q  2.46
 1                 T21K  1.48
 2                  R6S  2.56
 3                  L5Y  1.77
 4                 Q11H  1.98
 5                 Q10W  3.11
 6                 Q10G  1.58
 7                  L2M  1.49
 8                 K22Y   1.9
 9                 W13P  1.81
10                  A3S  1.69
11                  L2P  3.13
12                 Q10V  2.31
13                  L5W  1.34
14                 E15L  2.15
15                 S24L  1.95
16                  L1K  2.05
17                 S24P  1.82
18                 E18M  2.33
19                 W13E  2.03
20                 Q11Y  1.88
21                  R4P   1.6
22                  E7Y  3.38
23                 K14L  2.06
24                 K22V  1.97
25                 W13R  1.77
26                  R6E  1.82
27                 W13T  1.69
28                 W13L  1.71
29                  R6T  1.76
30                 R16H     1
31                 K22P  1.23
32                 Y19W  2.07
33                  L5N  2.43
34                 V23M  2.03
35                 I20K   2.1
36                  E7T  3.56
37                 Q10E  1.51
38                  E7V  3.16
39                 E15A  1.28
40                  E9I  1.96
41                 S24H  2.29
42                  R4S  1.78
43                  A3T   2.2
